STUDY SYSTEM: Integrin alpha-4/beta-1 (Homo sapiens, UniProt P05556+P13612, T112H)
PROTOCOL NOTES: Jurkat Cell Adhesion Inhibition Assay
Description: Binding affinities (IC50) of the ligands were studied in a Jurkat cell adhesion assay by inhibiting the alpha-4/beta-1 mediated cell adhesion to CS-1 peptides. The 96-well plates were coated with neutravidin, followed by biotinconjugated CS-1 peptides. […] Bound cells were recorded using a 96-well plate reader at 570 nm. IC50 values were calculated from inhibition curves resulting from the concentration-dependent inhibition
pIC50: −log10 of the molar value. *1 amine or outer side, *2 acyl side, *3 side chain or, on linkers, in order; H or OH if unused. Where a SMILES comes first, the peptide text is derived from it. [ ]: non-standard residue; d: D form. The star is where a group is joined. ξ: configuration not given here. Phac(3-amino) = O=C(Cc1cccc(N[*:1])c1)[*:2]; Leu(4,5-dehydro) = C=C(C)C[C@H](N)C(=O)O; X9 = Cc1ccccc1NC(=O)Nc1cccc(N*)c1; Ala(cPr) = N[C@@H](CC1CC1)C(=O)O; X1 = O=C(Cc1ccc(N[*:1])cc1)[*:2]; Ile(3ξ) = CCC(C)[C@H](N)C(=O)O; NH(2-Me-phenyl) = Cc1ccccc1N*; Isovaleryl = CC(C)CC(=O)*; 4Abz = Nc1ccc(C(=O)O)cc1; Nle = CCCC[C@H](N)C(=O)O; Abu = CC[C@H](N)C(=O)O; Dap = NC[C@H](N)C(=O)O; Aib = CC(C)(N)C(=O)O; CO = O=C([*:1])[*:2]; X10 = Brc1ccccc1N*
PROPERTY MEASURED: pIC50

CCC(C)[C@H](NC(=O)[C@H](CC(=O)O)NC(=O)[C@H](CC(C)C)NC(=O)Cc1ccc(NC(=O)Nc2ccccc2C)cc1)C(=O)N1CCC[C@H]1C(N)=O (some centres not stated) ({NH(2-Me-phenyl)-CO}-[X1]LD[Ile(3ξ)]P-NH2)
8.72
CCC(C)[C@H](NC(=O)[C@H](CC(=O)O)NC(=O)[C@H](CNC(=O)CC(C)C)NC(=O)Cc1ccc(NC(=O)Nc2ccccc2C)cc1)C(=O)N1CCC[C@H]1C(N)=O (some centres not stated) ({NH(2-Me-phenyl)-CO}-[X1][Dap](Isovaleryl)D[Ile(3ξ)]P-NH2)
7.20
CCCC[C@H](NC(=O)Cc1cccc(NC(=O)Nc2ccccc2C)c1)C(=O)N[C@@H](CC(=O)O)C(=O)N[C@H](C(=O)N1CCC[C@H]1C(N)=O)C(C)CC (some centres not stated) ({NH(2-Me-phenyl)-CO}-[Phac(3-amino)][Nle]D[Ile(3ξ)]P-NH2)
6.85

I = CCCC[C@H](NC(=O)Nc1cccc(NC(=O)Nc2ccccc2C)c1)C(=O)N[C@@H](CC(=O)O)C(=O)N[C@H](C(=O)N1CCC[C@H]1C(N)=O)C(C)CC (some centres not stated) ({X9-CO}-[Nle]D[Ile(3ξ)]P-NH2)
II = CCCC[C@H](NC(=O)Cc1ccc(NC(=O)Nc2ccccc2Br)cc1)C(=O)N[C@@H](CC(=O)O)C(=O)N[C@H](C(=O)N1CCC[C@H]1C(N)=O)C(C)CC (some centres not stated) ({X10-CO}-[X1][Nle]D[Ile(3ξ)]P-NH2)
III = C=C(C)C[C@H](NC(=O)Cc1ccc(NC(=O)Nc2ccccc2C)cc1)C(=O)N[C@@H](CC(=O)O)C(=O)N[C@H](C(=O)N1CCC[C@H]1C(N)=O)C(C)CC (some centres not stated) ({NH(2-Me-phenyl)-CO}-[X1][Leu(4,5-dehydro)]D[Ile(3ξ)]P-NH2)
IV = CCC(C)[C@H](NC(=O)[C@H](CC(=O)O)NC(=O)[C@H](CC1CC1)NC(=O)Cc1ccc(NC(=O)Nc2ccccc2C)cc1)C(=O)N1CCC[C@H]1C(N)=O (some centres not stated) ({NH(2-Me-phenyl)-CO}-[X1][Ala(cPr)]D[Ile(3ξ)]P-NH2)
V = CCCC[C@H](NC(=O)Cc1ccc(NC(=O)Nc2ccccc2C)cc1)C(=O)N[C@@H](CC(=O)O)C(=O)NC(C)(C)C(=O)N1CCC[C@H]1C(N)=O ({NH(2-Me-phenyl)-CO}-[X1][Nle]D[Aib]P-NH2)
(Q) Ordering: ascending pIC50. Please list each label once, in the requested order.
(A) I, IV, V, II, III

I = CCCC[C@H](NC(=O)c1ccc(NC(=O)Nc2ccccc2C)cc1)C(=O)N[C@@H](CC(=O)O)C(=O)N[C@H](C(=O)N1CCC[C@H]1C(N)=O)C(C)CC (some centres not stated) ({NH(2-Me-phenyl)-CO-4Abz}-[Nle]D[Ile(3ξ)]P-NH2)
II = CCCC[C@H](NC(=O)Cc1ccc(NC(=O)Nc2ccccc2C)cc1)C(=O)N[C@@H](CC(=O)O)C(=O)N[C@@H](CC)C(=O)N1CCC[C@H]1C(N)=O ({NH(2-Me-phenyl)-CO}-[X1][Nle]D[Abu]P-NH2)
(Q) Which record would sort first by descending pIC50, I or II ? Answer = label.
(A) II
